Provenance of the data: patent US20090208447A1

system-under-test: HLA-A*0201 loaded with the Carcinoembryonic antigen (CEA)-derived … peptide (biotinylated on the C-terminal biotinylation tag)
assay-name: SPR (Biacore), Example 4
assay-metric: koff

binder	recorded-value
SEQ ID NO 58 (receptor) MGHLPKPTLWAEPGSVITMDQPVTLRCQGGQETQEYRLYREKKTAPWITRIPQELVKKGQFPIPSITWEHAGRYRCYYGSDTSQWSASSDPLELVVTGIYLAPTLSAQPSPVVNSGGNVTLQCDSQVAFDGFILCKEGEDEHPQCLNSQPHARGSSRAIFSVGPVSPSRRWWYRCYAYDSNSPYEWSLPSDLLELLVL	≤ 2 s⁻¹
SEQ ID NO 43 (receptor) MGHLPKPTLWAEPGSVITQGSPVTLRCQGGQETQEYRLYREKKTAPWITRIPQELVKKGQFPIPSITWEHAGRYRCYYGSDTAGRSESSDPLELVVTGVYIKPTLSAQPSPVVNSGGNVTLQCDSQVAFDGFILCKEGEDEHPQCLNSQPHARGSSRAIFSVGPVSPGRRWWYRCYAYDSNSPYEWSLPSDLLELLVL	≤ 2 s⁻¹
